# Test system: WI-38
# Run Description: In vitro cytotoxicity against normal cell line WI-38
# Type: cell-based
# Measurement Conditions: Homo sapiens, WI-38, read-out: IC50 WI38
Reported IC50 by item:
Readout Kind: IC50 (µM)

| Compound | Assay System | Value |
| --- | --- | --- |
| CN(C)C/C=C/C(=O)Nc1cc2c(Nc3ccc(F)c(Cl)c3)ncnc2cc1O[C@H]1CCOC1 [Afatinib, reference compound] | WI-38 | 49.5 |
| CN1CCC2(CC1)C/C(=N\N=C\c1ccc(Cl)cc1)c1ccccc1O2 [Compound 4a] | WI-38 | 75.7 |
| CCN1CCC2(CC1)C/C(=N\N=C\c1ccc(N(C)C)cc1)c1ccccc1O2 [Compound 4c] | WI-38 | 55.3 |
| CN1CCC2(CC1)C/C(=N\N=C\c1ccc(N(C)C)cc1)c1ccccc1O2 [Compound 4b] | WI-38 | 60.4 |
| CN1CCC2(CC1)C/C(=N\N=C\c1ccc(O)cc1)c1ccccc1O2 [Compound 4d] | WI-38 | 33.3 |

Entry source: paper PMC10582582
